From: patent US20140081025A1

target: human orexin 2 receptor (hOX2R) (Homo sapiens, UniProt O43614); test: Measurement of orexin antagonist activity (intracellular Ca2+ fluorescence, FDSS) in CHO cells expressing hOX2R; settings: CHO cells forcibly expressing hOX2R; ligand (two-amino-acid-substituted human orexin-A) 3 nM; Fluo 4-AM; read-out: IC50 value OX2
Sequence (O43614 whole entry): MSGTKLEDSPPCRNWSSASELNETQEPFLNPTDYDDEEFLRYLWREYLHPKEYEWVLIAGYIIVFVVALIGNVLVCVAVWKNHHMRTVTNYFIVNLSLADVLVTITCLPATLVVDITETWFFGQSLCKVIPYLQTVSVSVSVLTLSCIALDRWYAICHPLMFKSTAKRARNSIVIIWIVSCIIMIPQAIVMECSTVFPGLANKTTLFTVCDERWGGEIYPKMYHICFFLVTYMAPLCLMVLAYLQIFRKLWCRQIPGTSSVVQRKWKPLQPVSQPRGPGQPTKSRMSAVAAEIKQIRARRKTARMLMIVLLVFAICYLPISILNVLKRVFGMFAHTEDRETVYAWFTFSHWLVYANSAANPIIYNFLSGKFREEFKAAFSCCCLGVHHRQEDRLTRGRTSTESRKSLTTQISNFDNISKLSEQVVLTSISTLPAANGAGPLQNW
pIC50: −log10 of the molar value.
VALUE TYPE: pIC50

The following compounds have reported results that may help.
CCN(CCc1noc(-c2ccc(F)cn2)n1)C(=O)c1cc(F)ccc1-c1ncccn1 [Example 46] :: 5.91
CCN(CCc1ccn(-c2ccc(F)cn2)n1)C(=O)c1ccc(F)cc1-n1nccn1 [Example 17] :: 8.55
Cc1ccc(-n2nccn2)c(C(=O)N(C)CCc2noc(-c3ccc(F)cn3)n2)c1 [Example 34] :: 6.92
CN(CCc1noc(-c2ccc(F)cn2)n1)C(=O)c1ccccc1-n1nccn1 [Example 33] :: 5.60

(1) CCN(CCc1ccn(-c2cccc(C)n2)n1)C(=O)c1cc(F)ccc1-c1ncccn1 [Example 28]
(2) CCN(CCc1ccn(-c2ccc(F)cc2)n1)C(=O)c1ccccc1-c1ncccn1 [Example 30]
stdin: // compare measured pIC50, left 1 , right 2 , return larger // caller expects the label of the chosen entry
stdout: 2
(2: 7.88, 1: 7.09)

(A) CCN(CCc1noc(-c2ccc(F)c(F)c2)n1)C(=O)c1cc(C)ccc1-n1nccn1 [Example 37]
(B) Cc1ccc(-n2nccn2)c(C(=O)N(C)CCc2noc(-c3ccc(F)c(F)c3)n2)c1 [Example 36]
stdin: When the recorded pIC50 values are compared, which is smaller: that of A or that of B ? // caller expects the label of the chosen entry
stdout: B
(B: 8.23, A: 8.70)
